# System: HEK-293T
# assay-text: Multiplex assay against HEK293T
# Assay type: toxicity, cell-based
# condition-parameters: human, 48 h, 1 µM, compound concentration 1 uM, replicate 1
Use 20% as the dividing line for Population Hoechst High Intensity Objects (%), with the line itself on the t side and lower values as f.

{"molecule": "S=C(NCCCc1c[nH]cn1)NCCCN(Cc1ccc(Cl)c(Cl)c1)c1ccc(Br)cn1", "discrete-label": "t"}

API: above_or_equal(metric=Population Hoechst High Intensity Objects (%), cutoff=20%) for item CCCS(=O)(=O)c1nc(NC2CC2)cc(-c2ccc3c(ccn3C3CC(C)(C)NC(C)(C)C3)c2)n1
f

Consider next the molecule C=C1/C(=C\C=C2/CCC[C@]3(C)[C@@H]([C@H](C)/C=C/[C@H](C)C(C)C)CC[C@@H]23)C[C@@H](O)C[C@@H]1O in the same way.
f

Consider next the molecule CN(C)C(=O)C(CCN1CCC(O)(c2ccc(Cl)cc2)CC1)(c1ccccc1)c1ccccc1.Cl [LOPERAMIDE HYDROCHLORIDE] in the same way.
f

Consider next the molecule Cc1cn(-c2cc(NC(=O)c3ccc(C)c(Nc4nccc(-c5cccnc5)n4)c3)cc(C(F)(F)F)c2)cn1 in the same way.
f

Consider next the molecule O=C(Nc1ccc(-c2ccnc(Nc3ccc(N4CCOCC4)cc3)n2)cc1)[C@@H]1CCCN1 in the same way.
f

Consider next the molecule CCOC(=O)c1c(C)[nH]c2ccc3c(c12)CN1CCc2cc(OC)ccc2C1O3 (centres undefined) in the same way.
f

Consider next the molecule CCOc1cc2ncc(C#N)c(Nc3ccc(OCc4ccccn4)c(Cl)c3)c2cc1NC(=O)/C=C/CN(C)C in the same way.
t

Consider next the molecule CNc1cc(Oc2cc(C(=O)Nc3cc(N4CCN(C)CC4)cc(C(F)(F)F)c3)ccc2C)ncn1 in the same way.
f
